target: Delta-type opioid receptor (Homo sapiens, UniProt P41143); assay: Displacement of [3H]diprenorphine from human delta opioid receptor expressed in CHO cells by liquid scintillation counting
Sequence (P41143 whole entry): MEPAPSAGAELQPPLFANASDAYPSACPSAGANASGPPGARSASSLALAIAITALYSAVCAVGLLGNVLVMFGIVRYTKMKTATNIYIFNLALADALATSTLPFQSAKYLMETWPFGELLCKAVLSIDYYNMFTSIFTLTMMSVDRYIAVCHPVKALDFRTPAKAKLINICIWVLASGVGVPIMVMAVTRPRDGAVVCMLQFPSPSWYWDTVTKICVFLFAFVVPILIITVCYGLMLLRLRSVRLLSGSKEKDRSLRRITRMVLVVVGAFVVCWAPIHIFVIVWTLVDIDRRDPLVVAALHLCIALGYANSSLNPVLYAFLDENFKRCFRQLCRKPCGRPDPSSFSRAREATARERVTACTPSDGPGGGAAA
MEASUREMENT_KIND: Ki (nM)
Numeric only. Scale: nM

// compound CCN(CC)C(=O)c1ccc(C2(c3cccc(O)c3)CCCN(CC3CC3)C2)cc1 (centres undefined) , assay Delta-type opioid receptor (Homo sapiens, UniProt P41143), Ki value: 0.8

// compound CCCC(C)CN1CCC(c2ccc(C(=O)N(C)C)cc2)(c2cccc(O)c2)CC1 (centres undefined) , assay Delta-type opioid receptor (Homo sapiens, UniProt P41143), Ki value: 11

// compound CCCC(C)CN1CCC(c2ccc(C(O)(CC)CC)cc2)(c2cccc(C(N)=O)c2)CC1 (centres undefined) , assay Delta-type opioid receptor (Homo sapiens, UniProt P41143), Ki value: 2

// compound CCN(CC)C(=O)c1ccc(C2(c3cccc(O)c3)CCCN(Cc3ncc[nH]3)C2)cc1 (centres undefined) , assay Delta-type opioid receptor (Homo sapiens, UniProt P41143), Ki value: 1.2

// compound CCN(CC)C(=O)c1ccc(C2(c3cccc(O)c3)CCCN(CC(F)(F)F)C2)cc1 (centres undefined) , assay Delta-type opioid receptor (Homo sapiens, UniProt P41143), Ki value: 2.9

// compound CCN(CC)C(=O)c1ccc(C2(c3cccc(C(N)=O)c3)CCCN(Cc3nccs3)C2)cc1 (centres undefined) , assay Delta-type opioid receptor (Homo sapiens, UniProt P41143), Ki value: 7

// compound CC(C)(O)c1ccc(C2(c3cccc(O)c3)CCCN(CC3CC3)C2)cc1 (centres undefined) , assay Delta-type opioid receptor (Homo sapiens, UniProt P41143), Ki value: 39

// compound CCC(O)(CC)c1ccc(C2(c3cccc(C(N)=O)c3)CCN(CC3CC3)CC2)cc1 , assay Delta-type opioid receptor (Homo sapiens, UniProt P41143), Ki value: 2.3

// compound CCCCN1CCCC(c2ccc(C(=O)N(CC)CC)cc2)(c2cccc(O)c2)C1 (centres undefined) , assay Delta-type opioid receptor (Homo sapiens, UniProt P41143), Ki value: 6.2

This collection of values is drawn from ChEMBL document CHEMBL1153251.
